These measurements were taken from patent US20240158446A1.

For each record, write down the corresponding Kd.
- measurement target: GDP-bound KRAS wild-type protein (Homo sapiens, UniProt P01116)
- Sequence (P01116 whole entry): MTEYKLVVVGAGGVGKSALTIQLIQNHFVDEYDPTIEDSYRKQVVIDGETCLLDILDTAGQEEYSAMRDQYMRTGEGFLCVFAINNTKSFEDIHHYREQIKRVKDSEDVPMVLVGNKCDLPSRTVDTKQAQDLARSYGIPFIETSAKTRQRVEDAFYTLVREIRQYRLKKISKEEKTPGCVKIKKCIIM
- assay protocol: Binding to KRAS by surface plasmon resonance (SPR), Single Cycle Kinetics
- measurement conditions: SPR, Single Cycle Kinetics, GDP-bound KRAS wild-type protein; read-out: KRAS KD
Where a SMILES comes first, the peptide text is derived from it. Bridges are numbered along the chain shown (N, C = ends). [ ]: non-standard residue; d: D form. The star is where a group is joined. hPhe(3-Cl-4-CF3) = N[C@@H](CCc1ccc(C(F)(F)F)c(Cl)c1)C(=O)O; NPrPhe(4-CF3) = CCCN[C@@H](Cc1ccc(C(F)(F)F)cc1)C(=O)O; NMeGly(cPent) = CN[C@H](C(=O)O)C1CCCC1; NMeD = CN[C@@H](CC(=O)O)C(=O)O; NMeL = CN[C@@H](CC(C)C)C(=O)O; Morpholide = C1CN(*)CCO1; Ac5c = NC1(C(=O)O)CCCC1; NEtG = CCNCC(=O)O; Sar = CNCC(=O)O

[
  {
    "molecule": "CC[C@H](C)[C@@H]1NC(=O)[C@H](CC(F)(F)F)N(C)C(=O)C[C@@H](C(=O)N(C)C)N(C)C(=O)[C@H](C2CCCC2)N(C)C(=O)C2(CC(C)(C)C2)NC(=O)[C@@H]2CCCN2C(=O)[C@H](CCc2cc(F)c(C(F)(F)F)c(F)c2)NC(=O)CN(C)C(=O)[C@H](Cc2ccc(C(F)(F)F)cc2)N2CC/C=C\\C[C@@H](C2=O)N(C)C(=O)CN(C)C1=O [PP1722]",
    "Kd": "0.06 nM"
  },
  {
    "molecule": "CCO[C@@H]1C[C@H]2C(=O)NC3(CC(C)(C)C3)C(=O)N(C)[C@@H](C(CC)CC)C(=O)N(C)[C@H](C(=O)N(C)C)CC(=O)N(C)[C@@H](CC3CC3)C(=O)N[C@@H]([C@@H](C)CC)C(=O)N(C)CC(=O)N(C)[C@H]3C/C=C\\CCN(C3=O)[C@@H](Cc3ccc(C)cc3)C(=O)N(C)CC(=O)N[C@@H](CCc3cc(F)c(C(F)(F)F)c(F)c3)C(=O)N2C1 [PP2137]",
    "Kd": "0.37 nM"
  },
  {
    "molecule": "CCCN1C(=O)CN(C)C(=O)CNC(=O)[C@H]([C@@H](C)CC)NC(=O)[C@H](CC(C)C)N(C)C(=O)C[C@@H](C(=O)N2CCOCC2)N(C)C(=O)[C@H](C2CCCC2)N(C)C(=O)C2(CCCC2)NC(=O)[C@@H]2CCCN2C(=O)[C@H](CCc2ccc(C(F)(F)F)c(Cl)c2)NC(=O)CN(CC)C(=O)[C@@H]1Cc1ccc(C(F)(F)F)cc1 [PP1969] ([NMeL]IG[Sar][NPrPhe(4-CF3)][NEtG][hPhe(3-Cl-4-CF3)]P[Ac5c][NMeGly(cPent)][NMeD]-Morpholide; lactam N-11)",
    "Kd": "2.1 nM"
  },
  {
    "molecule": "CCO[C@@H]1C[C@H]2C(=O)NC3(CCC3)C(=O)N(C)[C@@H](C3CCCC3)C(=O)N(C)[C@H](C(=O)N(C)C)CC(=O)N(C)[C@@H](CC)C(=O)N[C@@H]([C@@H](C)CC)C(=O)N(C)CC(=O)N(C)[C@H]3CCCCN(C3=O)[C@@H](Cc3ccc(C(F)(F)F)cc3)C(=O)N(C)CC(=O)N[C@@H](CCc3ccc(OC(F)F)c(F)c3)C(=O)N2C1 [PP0986]",
    "Kd": "0.27 nM"
  }
]

Query: Could you tell me which Kd is on file for CCO[C@@H]1C[C@H]2C(=O)NC3(CCC3)C(=O)N(C)[C@@H](C3CCCC3)C(=O)N(C)[C@H](C(=O)N(C)C)CC(=O)N(C)[C@@H](CC)C(=O)N[C@@H]([C@@H](C)CC)C(=O)N3CC[C@H]3C(=O)N(C)[C@H]3C/C=C\CCN(C3=O)[C@@H](Cc3ccc(C(F)(F)F)cc3)C(=O)N(C)CC(=O)N[C@@H](CCc3cc(F)c(C(F)(F)F)c(F)c3)C(=O)N2C1 [PP0984] ?
Reply: 0.28 nM
